Biological target: biotinylated CD59 (Homo sapiens, UniProt P13987)
Construct: Recombinant soluble human CD59 with an additional C-terminal cysteine residue
Sequence (P13987 26-102 limits assumed): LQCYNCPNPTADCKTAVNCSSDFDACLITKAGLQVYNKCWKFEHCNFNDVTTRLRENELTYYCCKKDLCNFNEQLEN
Experiment: mRNA-display cyclic peptide screen against CD59-biotin, NGS abundance after 6th selection round
Details: counts normalised by total counts of sample Seq I; percentage of the pool, sheet R6

seqText | Percentage Seq I / %
FVRGDQYSVLG | 0.056
WILGSRWWTQR | 0.021
CFAARLSNGDS | 0.319
